target: T1, HLA-A*0201 molecule on human T2 cells (human); test: T2 cells expressing HLA-A*0201, anti-HLA-A2-PE, FACS
T1 construct: read out with anti-HLA-A2 antibody BB7.2-PE; also called HLA-A2
Recorded Metric: mean relative fluorescence intensity at 6.25 µM peptide

What value of mean relative fluorescence intensity at 6.25 µM peptide has been recorded for this entry: LTLGEFLKL [BIRC5-H]
10.8 % of HIV peptide

What value of mean relative fluorescence intensity at 6.25 µM peptide has been recorded for this entry: FLDSLGFSL [TYMS-B2]
27.5 % of HIV peptide

What value of mean relative fluorescence intensity at 6.25 µM peptide has been recorded for this entry: FLDSLGFST [TYMS-H2]
6.1 % of HIV peptide

What value of mean relative fluorescence intensity at 6.25 µM peptide has been recorded for this entry: SMFRVLIGT (Fragment of human EZH2) [EZH2-H2]
0 % of HIV peptide

What value of mean relative fluorescence intensity at 6.25 µM peptide has been recorded for this entry: FMLGEFLKL [BIRC5-B1]
36.1 % of HIV peptide
